target: T1, cTnI quality control product recombinant protein (human, UniProt P19429 2-210, limits assumed); assay: AMC sensor, antibody immobilised, cTnI in solution
T1 construct: treated as the same molecule; also called cTnI antigen; cardiac troponin I
T1 sequence (P19429 2-210 limits assumed): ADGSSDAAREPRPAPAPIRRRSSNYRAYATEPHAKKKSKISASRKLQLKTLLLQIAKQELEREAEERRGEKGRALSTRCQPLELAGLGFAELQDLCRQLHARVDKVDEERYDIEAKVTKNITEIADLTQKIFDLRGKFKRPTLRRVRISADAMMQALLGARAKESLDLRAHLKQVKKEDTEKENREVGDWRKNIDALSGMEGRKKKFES
Recorded measurements of pKd, one per entry
Reminder that pKd means the negative base-10 logarithm of the concentration expressed in mol/L.

binder	reported property	experimental result
Mutation 1-15 (antibody, V domains shown, Built as m8) VH: EVQLQQSGPELVKPGASVKMSCKASGYTFTLYVVHWVKQKPGQGLEWIGYINPYIDGTKYNEKFKGKATLTVDKSSSTAFMELSSLTSEDSAVYYCARSGYGQYGLAWLAYWGQGTLVTVSA VL: QAVVIQESALTTSPGETVTLTCRSSTGAVTTSNYANWVQEKPDHLFTGLIGGSQNRAPGVPARFSGSLIGDKAALTITGAQTEDEAIYFCALVYSNNWVFGGGTKLTVLG	pKd	9.12
Mutation 1-31 (antibody, V domains shown, Built as m8) VH: EVQLQQSGPELVKPGASVKMSCKASGYTFTIYVLHWVKQKPGQGLEWIGYINPYIDGTKYNEKFKGKATLTVDKSSSTAFMELSSLTSEDSAVYYCARSGYGNYGLAWLAYWGQGTLVTVSA VL: QAVVIQESALTTSPGETVTLTCRSSTGAATTSQYANWVQEKPDHLFTGLIGGSQNRAPGVPARFSGSLIGDKAALTITGAQTEDEAIYFCALVYSNNWVFGGGTKLTVLG	pKd	8.03
Mutation 1-37 (antibody, V domains shown, Built as m8) VH: EVQLQQSGPELVKPGASVKMSCKASGYTFTIYVLHWVKQKPGQGLEWIGYINPYLDGTKYNEKFKGKATLTVDKSSSTAFMELSSLTSEDSAVYYCARSGYGNYGLAWLAYWGQGTLVTVSA VL: QAVVIQESALTTSPGETVTLTCRSSTGAVTTSQYANWVQEKPDHLFTGLIGGSQNRAPGVPARFSGSLIGDKAALTITGAQTEDEAIYFCALVYSNQWVFGGGTKLTVLG	pKd	8.28

*Q* Endpoint output: pKd of Mutation 1-22 (antibody, V domains shown, Built as m8) VH: EVQLQQSGPELVKPGASVKMSCKASGYTFTLYVLHWVKQKPGQGLEWIGYIYPYIDGTKYNEKFKGKATLTVDKSSSTAFMELSSLTSEDSAVYYCARSGYGNYGLAWLAYWGQGTLVTVSA VL: QAVVIQESALTTSPGETVTLTCRSSTGAVTTSQYANWVQEKPDHLFTGLIGGSNNRAPGVPARFSGSLIGDKAALTITGAQTEDEAIYFCALVYSNNWVFGGGTKLTVLG . Value?
*A* 9.97

*Q* Give its pKd value. Item: Mutation 1-14 (antibody, V domains shown, Built as m8) VH: EVQLQQSGPELVKPGASVKMSCKASGYTFTIYVIHWVKQKPGQGLEWIGYINPYIDGTKYNEKFKGKATLTVDKSSSTAFMELSSLTSEDSAVYYCARSGYGGYGLAWLAYWGQGTLVTVSA VL: QAVVIQESALTTSPGETVTLTCRSSTGAVTTSQYANWVQEKPDHLFTGLIGGSNNRAPGVPARFSGSLIGDKAALTITGAQTEDEAIYFCALVYSNHWVFGGGTKLTVLG
*A* 9.06
